Origin of the recorded values: the RNAGym collection of RNA variant scans (doi:10.1073/pnas.2313332121)

B1: TPR t1 (parent)
chain: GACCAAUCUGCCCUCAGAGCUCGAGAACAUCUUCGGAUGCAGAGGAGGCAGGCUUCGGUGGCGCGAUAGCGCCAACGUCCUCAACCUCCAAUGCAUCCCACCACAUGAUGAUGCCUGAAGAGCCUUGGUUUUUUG

variants of: B1; test: polymerase ribozyme fitness, log enrichment relative to wild type (log ratio); higher = more active; in vitro selection for triplet polymerase activity
Recorded polymerase ribozyme fitness (log ratio), one value per entry.
I only need the number, thanks.

{"sequence.variant": "A84G C88U", "observation.type": "polymerase ribozyme fitness (log ratio)", "reported.measurement": -0.134}
{"sequence.variant": "C40G C72G U92A G113U", "observation.type": "polymerase ribozyme fitness (log ratio)", "reported.measurement": -4.69}
{"sequence.variant": "A24U C72U", "observation.type": "polymerase ribozyme fitness (log ratio)", "reported.measurement": -5.63}
{"sequence.variant": "U54A G60C", "observation.type": "polymerase ribozyme fitness (log ratio)", "reported.measurement": -0.566}

Read the entry C12U C73U and write its reported polymerase ribozyme fitness (log ratio).
0.0527

Read the entry G69U G93C A95U A103U C114U and write its reported polymerase ribozyme fitness (log ratio).
-3.98

Read the entry A6C C13A G48C C49G and write its reported polymerase ribozyme fitness (log ratio).
-3.01

Read the entry C13A C53A C115U A119U and write its reported polymerase ribozyme fitness (log ratio).
0.949

Read the entry C53G G58A C115A and write its reported polymerase ribozyme fitness (log ratio).
-0.718

Read the entry A26U C98U and write its reported polymerase ribozyme fitness (log ratio).
-4.2

Read the entry C22G A26C C94A A95U A119G and write its reported polymerase ribozyme fitness (log ratio).
-4.33

Read the entry A5G G45A and write its reported polymerase ribozyme fitness (log ratio).
-0.52

Read the entry C3A U81G C115U and write its reported polymerase ribozyme fitness (log ratio).
-6.22

Read the entry A83C C114A C123G C124G and write its reported polymerase ribozyme fitness (log ratio).
-0.19

Read the entry C40U G52A G60U A91U U109A and write its reported polymerase ribozyme fitness (log ratio).
-6.64

Read the entry C8G C114A and write its reported polymerase ribozyme fitness (log ratio).
0.0806

Read the entry A43C G48C C72G C102G and write its reported polymerase ribozyme fitness (log ratio).
-7.62

Read the entry C22G A50G C73G C94A G120C and write its reported polymerase ribozyme fitness (log ratio).
-4.89

Read the entry A43G C56G C82A A84C C114U and write its reported polymerase ribozyme fitness (log ratio).
-3.15

Read the entry A6G C11G C13G C99A C102U and write its reported polymerase ribozyme fitness (log ratio).
-5.35

Read the entry G45A C56A and write its reported polymerase ribozyme fitness (log ratio).
-0.425

Read the entry C49A G61A G127C G135C and write its reported polymerase ribozyme fitness (log ratio).
-0.458

Read the entry C70A C114A A119U and write its reported polymerase ribozyme fitness (log ratio).
-4.59
